Entries and their measured AUCt follow.
- System: Brain
- Test: AUC (0 to t) in BALB/c mouse brain at 10 mg/kg, po by LC-MS/MS analysis
- Assay type: ADME, organism-based
- Applied Conditions: in vivo
// unit must come after the numeric part

Some solved cases for reference:
                        structure_as_smiles        result
0  CC(=O)NC[C@H]1CN(c2ccc(N3CCOCC3)c(F)c2)C(=O)O1   0.83 µg·h/g
1  CC(=O)NC[C@H]1CN(c2ccc(N3CC[Si](C)(C)CC3)c(F)c2)C(=O)O1   3.01 µg·h/g
2  CC(=O)NC[C@H]1CN(c2cc(F)c(N3CC[Si](C)(C)CC3)c(F)c2)C(=O)O1  14.74 µg·h/g

Next item in the queue.
Ask: Which measured AUCt value corresponds to `COC(=S)NC[C@H]1CN(c2ccc(N3CC[Si](C)(C)CC3)c(F)c2)C(=O)O1` ?
Result: 3.11 µg·h/g

====

- System: Neisseria meningitidis
- Test: Antibacterial activity against clinical isolate Neisseria meningitidis 184 by microbroth dilution method
- Type: functional
Assay Readout: MIC

In [3]: df
Out[3]:
                        structure_as_smiles      result
0  COC(=S)NC[C@H]1CN(c2ccc(N3CC[Si](C)(C)CC3)c(F)c2)C(=O)O1    32 µg/mL
1  CC(=O)NC[C@H]1CN(c2ccc(N3CC[Si](C)(C)CC3)c(F)c2)C(=O)O1  > 32 µg/mL
2  CC(=O)NC[C@H]1CN(c2ccc(N3CCOCC3)c(F)c2)C(=O)O1     8 µg/mL

Ask: Find the measured MIC: item `CC(=O)NC[C@H]1CN(c2cc(F)c(N3CC[Si](C)(C)CC3)c(F)c2)C(=O)O1` , target or system Neisseria meningitidis.
Result: > 32 µg/mL

====

- Test: Solubility of compound at pH 10.2 by HPLC analysis
- Type: physicochemical
- Applied Conditions: buffer
Assay Readout: solubility (µM)
Report as a plain number; the unit µM is understood.

Some solved cases for reference:
>>> df
                        structure_as_smiles  assay_readout  quantitative_result
0  CC(=O)NC[C@H]1CN(c2cc(F)c(N3CC[Si](C)(C)CC3)c(F)c2)C(=O)O1     solubility                   20
1  COC(=S)NC[C@H]1CN(c2ccc(N3CC[Si](C)(C)CC3)c(F)c2)C(=O)O1     solubility                    2

Next item in the queue.
Ask: Which measured solubility value corresponds to `CC(=O)NC[C@H]1CN(c2ccc(N3CC[Si](C)(C)CC3)c(F)c2)C(=O)O1` ?
Result: 41

====

- Test: Ratio of AUC (0 to t) in brain to plasma in BALB/c mouse at 10 mg/kg, po
- Assay type: ADME, organism-based
Entries and their measured Kp follow.
Simply state the number, no unit and no words.

Some solved cases for reference:
                        structure_as_smiles  assay_readout  quantitative_result
0  CC(=O)NC[C@H]1CN(c2cc(F)c(N3CC[Si](C)(C)CC3)c(F)c2)C(=O)O1             Kp                 2.54
1  COC(=S)NC[C@H]1CN(c2ccc(N3CC[Si](C)(C)CC3)c(F)c2)C(=O)O1             Kp                 3.57

Next item in the queue.
Ask: Which measured Kp value corresponds to `CC(=O)NC[C@H]1CN(c2ccc(N3CC[Si](C)(C)CC3)c(F)c2)C(=O)O1` ?
Result: 1.69

====

- Test: Solubility of compound at pH 4.5 by HPLC analysis
- Format: physicochemical
- Applied Conditions: buffer
Entries and their measured solubility follow.
Report as a plain number; the unit µM is understood.

Some solved cases for reference:
>>> df
                        structure_as_smiles  assay_readout  quantitative_result
0  COC(=S)NC[C@H]1CN(c2ccc(N3CC[Si](C)(C)CC3)c(F)c2)C(=O)O1     solubility                    9
1  CC(=O)NC[C@H]1CN(c2cc(F)c(N3CC[Si](C)(C)CC3)c(F)c2)C(=O)O1     solubility                   20

Next item in the queue.
Ask: Which measured solubility value corresponds to `CC(=O)NC[C@H]1CN(c2ccc(N3CC[Si](C)(C)CC3)c(F)c2)C(=O)O1` ?
Result: 41

====

Entries and their measured fraction unbound follow.
- Test: Plasma protein binding in human
- Assay type: ADME, cell-free
- Applied Conditions: read-out: PPB (converted)
Simply state the number, no unit and no words.

Some solved cases for reference:
>>> df
                        structure_as_smiles     assay_readout  quantitative_result
0  CC(=O)NC[C@H]1CN(c2ccc(N3CCOCC3)c(F)c2)C(=O)O1  fraction unbound                 0.74
1  CC(=O)NC[C@H]1CN(c2cc(F)c(N3CC[Si](C)(C)CC3)c(F)c2)C(=O)O1  fraction unbound                0.004

Ask: Which measured fraction unbound value corresponds to `CC(=O)NC[C@H]1CN(c2ccc(N3CC[Si](C)(C)CC3)c(F)c2)C(=O)O1` ?
Result: 0.0567

====

- Test: Metabolic stability in human liver microsomes after 30 mins by LC-MS/MS analysis
- Assay type: ADME
- Applied Conditions: read-out: Stability
Assay Readout: remaining at 0.5 h (%)
Report as a plain number; the unit % is understood.

Some solved cases for reference:
                                   molecule       assay_readout  measurement_units  quantitative_result
0  COC(=S)NC[C@H]1CN(c2ccc(N3CC[Si](C)(C)CC3)c(F)c2)C(=O)O1  remaining at 0.5 h                  %                   43
1  CC(=O)NC[C@H]1CN(c2ccc(N3CC[Si](C)(C)CC3)c(F)c2)C(=O)O1  remaining at 0.5 h                  %                 48.9
2  CC(=O)NC[C@H]1CN(c2ccc(N3CCOCC3)c(F)c2)C(=O)O1 [LINEZOLID]  remaining at 0.5 h                  %                  100

Next item in the queue.
Ask: Which measured remaining at 0.5 h value corresponds to `CC(=O)NC[C@H]1CN(c2cc(F)c(N3CC[Si](C)(C)CC3)c(F)c2)C(=O)O1` ?
Result: 69.8

====

Entries and their measured remaining at 0.5 h follow.
- Test: Metabolic stability in mouse liver microsomes after 30 mins by LC-MS/MS analysis
- Format: ADME
- Applied Conditions: read-out: Stability
Report as a plain number; the unit % is understood.

>>> df
                        structure_as_smiles       assay_readout  measurement_units  quantitative_result
0  CC(=O)NC[C@H]1CN(c2cc(F)c(N3CC[Si](C)(C)CC3)c(F)c2)C(=O)O1  remaining at 0.5 h                  %                 68.4
1  CC(=O)NC[C@H]1CN(c2ccc(N3CC[Si](C)(C)CC3)c(F)c2)C(=O)O1  remaining at 0.5 h                  %                 40.8
2  CC(=O)NC[C@H]1CN(c2ccc(N3CCOCC3)c(F)c2)C(=O)O1  remaining at 0.5 h                  %                  100

Next item in the queue.
Ask: Which measured remaining at 0.5 h value corresponds to `COC(=S)NC[C@H]1CN(c2ccc(N3CC[Si](C)(C)CC3)c(F)c2)C(=O)O1` ?
Result: 15.2

====

- Test: AUC (0 to t) in BALB/c mouse plasma at 10 mg/kg, po by LC-MS/MS analysis
- Assay type: ADME, organism-based
Assay Readout: AUC(0-t) (ng·h/mL)
Report as a plain number; the unit ng·h/mL is understood.

Some solved cases for reference:
                                   compound  assay_readout  quantitative_result
0  CC(=O)NC[C@H]1CN(c2ccc(N3CC[Si](C)(C)CC3)c(F)c2)C(=O)O1       AUC(0-t)                 1780
1  CC(=O)NC[C@H]1CN(c2ccc(N3CCOCC3)c(F)c2)C(=O)O1 [LINEZOLID]       AUC(0-t)                 7580
2  CC(=O)NC[C@H]1CN(c2cc(F)c(N3CC[Si](C)(C)CC3)c(F)c2)C(=O)O1       AUC(0-t)                 5800

Ask: Which measured AUC(0-t) value corresponds to `COC(=S)NC[C@H]1CN(c2ccc(N3CC[Si](C)(C)CC3)c(F)c2)C(=O)O1` ?
Result: 870

FYI, the data here is from ChEMBL document CHEMBL3751664.
